What inhibition at 1 µM was measured for each of the following?
target: JAK3(JH1domain-catalytic) (Homo sapiens, UniProt P52333); construct: JAK3(JH1domain-catalytic); purchased Eurofins DiscoverX KINOMEscan (scanTK); experiment: KINOMEscan ScanTK; assay type: binding; settings: ScanTK, 1 μM
Sequence (P52333 822-1124 limits assumed): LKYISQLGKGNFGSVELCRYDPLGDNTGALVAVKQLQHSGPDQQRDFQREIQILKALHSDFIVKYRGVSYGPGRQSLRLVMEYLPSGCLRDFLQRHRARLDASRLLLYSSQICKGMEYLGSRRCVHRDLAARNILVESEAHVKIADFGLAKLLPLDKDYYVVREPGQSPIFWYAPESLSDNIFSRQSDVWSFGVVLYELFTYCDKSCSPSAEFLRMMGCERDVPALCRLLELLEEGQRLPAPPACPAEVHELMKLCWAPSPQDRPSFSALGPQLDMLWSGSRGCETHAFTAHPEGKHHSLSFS
Answers are plain numbers, in %.

> print(dat)
                                   compound                             tested.target  result.number
1  CNC(=O)c1cnc(S(C)(=O)=O)nc1N1CCCC(n2nc(-c3ccc(Oc4ccccc4)cc3)c3c(N)ncnc32)C1 (centres unmarked)  JAK3(JH1domain-catalytic) (Homo sapiens, UniProt P52333)             27

Prompt line: inhibition at 1 µM for C=CC(=O)N1CCC[C@@H](n2nc(-c3ccc(Oc4ccccc4)cc3)c3c(N)ncnc32)C1 [Compound 1g, Ibrutinib, reference compound] ?
Response line: 95

* * *

target: EGFR(G719S) (Homo sapiens, UniProt P00533, G719S); construct: purchased Eurofins DiscoverX KINOMEscan (scanTK); assay: KINOMEscan ScanTK; type: binding; conditions: @1000nM
Sequence (P00533 25-1210 G719S): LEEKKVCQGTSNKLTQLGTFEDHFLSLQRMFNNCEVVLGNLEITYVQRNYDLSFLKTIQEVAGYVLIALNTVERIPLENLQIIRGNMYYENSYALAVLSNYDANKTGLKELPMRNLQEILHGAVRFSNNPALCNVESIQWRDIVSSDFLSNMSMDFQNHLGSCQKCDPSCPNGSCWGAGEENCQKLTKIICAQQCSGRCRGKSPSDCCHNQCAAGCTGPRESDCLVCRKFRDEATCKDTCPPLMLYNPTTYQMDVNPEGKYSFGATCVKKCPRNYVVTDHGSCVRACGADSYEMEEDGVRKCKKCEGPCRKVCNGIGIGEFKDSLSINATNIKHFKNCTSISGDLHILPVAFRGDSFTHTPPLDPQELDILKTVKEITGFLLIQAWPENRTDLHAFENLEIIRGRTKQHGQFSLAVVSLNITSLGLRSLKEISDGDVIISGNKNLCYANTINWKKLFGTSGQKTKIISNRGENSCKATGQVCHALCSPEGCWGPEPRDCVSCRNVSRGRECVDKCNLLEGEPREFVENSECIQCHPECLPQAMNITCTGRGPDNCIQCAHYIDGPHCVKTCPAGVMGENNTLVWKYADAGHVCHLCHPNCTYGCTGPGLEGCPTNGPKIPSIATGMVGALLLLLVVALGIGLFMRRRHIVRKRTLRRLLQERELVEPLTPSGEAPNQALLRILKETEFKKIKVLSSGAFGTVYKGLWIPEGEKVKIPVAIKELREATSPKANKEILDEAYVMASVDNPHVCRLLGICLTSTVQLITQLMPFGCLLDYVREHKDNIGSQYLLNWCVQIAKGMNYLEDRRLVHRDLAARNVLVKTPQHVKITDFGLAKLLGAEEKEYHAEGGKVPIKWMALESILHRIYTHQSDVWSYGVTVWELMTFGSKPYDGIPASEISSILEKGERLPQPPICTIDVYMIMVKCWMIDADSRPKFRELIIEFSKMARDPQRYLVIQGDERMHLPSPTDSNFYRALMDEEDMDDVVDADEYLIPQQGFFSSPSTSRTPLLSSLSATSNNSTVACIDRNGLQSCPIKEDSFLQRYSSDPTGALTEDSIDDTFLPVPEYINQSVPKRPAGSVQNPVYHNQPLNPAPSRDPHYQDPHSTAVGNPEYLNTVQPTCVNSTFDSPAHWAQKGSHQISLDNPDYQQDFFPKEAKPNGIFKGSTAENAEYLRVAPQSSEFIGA
Readout: difference in %Control from compound Ib at 1 µM
Please state the value followed by its unit.

> print(dat)
                                   molecule  result
1  Cc1cnc(S(C)(=O)=O)nc1N1CCCC(n2nc(-c3ccc(Oc4ccccc4)cc3)c3c(N)ncnc32)C1 (stereo not shown)   95.4%
2  CNC(=O)c1cnc(S(C)(=O)=O)nc1N1CCCC(n2nc(-c3ccc(Oc4ccccc4)cc3)c3c(N)ncnc32)C1 (stereo not shown)   77.4%
3  COC(=O)c1cnc(S(C)(=O)=O)nc1N1CCCC(n2nc(-c3ccc(Oc4ccccc4)cc3)c3c(N)ncnc32)C1 (stereo not shown)   84.4%

Prompt line: difference in %Control from compound Ib at 1 µM for "CCOC(=O)c1cnc(S(C)(=O)=O)nc1N1CCC[C@@H](n2nc(-c3ccc(Oc4ccccc4)cc3)c3c(N)ncnc32)C1" ?
Response line: 93.4%

* * *

target: RET(M918T) (Homo sapiens, UniProt P07949, M918T); construct: purchased Eurofins DiscoverX KINOMEscan (scanTK); assay: KINOMEscan ScanTK; type: binding; conditions: read-out: %Control @1000nM
Sequence (P07949 29-1114 M918T): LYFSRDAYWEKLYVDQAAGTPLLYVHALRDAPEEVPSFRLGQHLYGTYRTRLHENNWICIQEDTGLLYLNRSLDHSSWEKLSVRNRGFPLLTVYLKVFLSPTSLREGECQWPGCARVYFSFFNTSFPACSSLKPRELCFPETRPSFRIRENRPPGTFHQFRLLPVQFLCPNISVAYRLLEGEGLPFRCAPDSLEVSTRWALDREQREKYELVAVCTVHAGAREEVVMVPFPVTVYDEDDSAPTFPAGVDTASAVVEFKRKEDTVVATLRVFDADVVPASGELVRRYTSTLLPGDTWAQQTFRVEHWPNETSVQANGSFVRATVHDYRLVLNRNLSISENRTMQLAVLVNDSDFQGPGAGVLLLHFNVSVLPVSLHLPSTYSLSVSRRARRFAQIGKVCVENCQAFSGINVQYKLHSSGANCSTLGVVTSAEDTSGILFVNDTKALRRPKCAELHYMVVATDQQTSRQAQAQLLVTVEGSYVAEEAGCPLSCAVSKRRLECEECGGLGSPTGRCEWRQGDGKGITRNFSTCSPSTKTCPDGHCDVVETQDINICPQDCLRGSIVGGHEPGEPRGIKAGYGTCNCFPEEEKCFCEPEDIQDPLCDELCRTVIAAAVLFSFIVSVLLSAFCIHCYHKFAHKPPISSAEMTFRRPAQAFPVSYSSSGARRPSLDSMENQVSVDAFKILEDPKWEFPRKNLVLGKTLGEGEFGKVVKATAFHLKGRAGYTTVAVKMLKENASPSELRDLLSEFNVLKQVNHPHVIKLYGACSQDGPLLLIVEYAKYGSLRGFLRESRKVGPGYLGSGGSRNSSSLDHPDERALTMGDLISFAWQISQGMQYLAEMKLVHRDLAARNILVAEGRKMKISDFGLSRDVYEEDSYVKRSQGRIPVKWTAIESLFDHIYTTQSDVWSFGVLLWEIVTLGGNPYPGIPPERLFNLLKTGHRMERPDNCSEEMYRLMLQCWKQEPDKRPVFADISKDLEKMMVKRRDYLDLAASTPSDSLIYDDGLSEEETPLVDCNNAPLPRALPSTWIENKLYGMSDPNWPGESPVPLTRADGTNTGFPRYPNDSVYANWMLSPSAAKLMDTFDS
What remaining binding at 1 µM was measured for each of the following?

Check out these entries, answers already filled in.
> print(dat)
                                   compound  result
1  CCOC(=O)c1cnc(S(C)(=O)=O)nc1N1CCC[C@@H](n2nc(-c3ccc(Oc4ccccc4)cc3)c3c(N)ncnc32)C1 [Compound 8c]     87%
2  CNC(=O)c1cnc(S(C)(=O)=O)nc1N1CCCC(n2nc(-c3ccc(Oc4ccccc4)cc3)c3c(N)ncnc32)C1 (centres unmarked) [Compound 8d]     32%
3  COC(=O)c1cnc(S(C)(=O)=O)nc1N1CCCC(n2nc(-c3ccc(Oc4ccccc4)cc3)c3c(N)ncnc32)C1 (centres unmarked) [Compound 8b]     49%
4  Cc1cnc(S(C)(=O)=O)nc1N1CCCC(n2nc(-c3ccc(Oc4ccccc4)cc3)c3c(N)ncnc32)C1 (centres unmarked) [Compound 8a]     53%

Now let's try a different one.
Prompt line: remaining binding at 1 µM for C=CC(=O)N1CCC[C@@H](n2nc(-c3ccc(Oc4ccccc4)cc3)c3c(N)ncnc32)C1 [Compound 1g, Ibrutinib, reference compound] ?
Response line: 14%

* * *

molecular target: ITK (Homo sapiens, UniProt Q08881); construct: purchased Eurofins DiscoverX KINOMEscan (scanTK); experiment: KINOMEscan ScanTK; type: binding; conditions: ITK; read-out: %Control @1000nM
Sequence (Q08881 whole entry): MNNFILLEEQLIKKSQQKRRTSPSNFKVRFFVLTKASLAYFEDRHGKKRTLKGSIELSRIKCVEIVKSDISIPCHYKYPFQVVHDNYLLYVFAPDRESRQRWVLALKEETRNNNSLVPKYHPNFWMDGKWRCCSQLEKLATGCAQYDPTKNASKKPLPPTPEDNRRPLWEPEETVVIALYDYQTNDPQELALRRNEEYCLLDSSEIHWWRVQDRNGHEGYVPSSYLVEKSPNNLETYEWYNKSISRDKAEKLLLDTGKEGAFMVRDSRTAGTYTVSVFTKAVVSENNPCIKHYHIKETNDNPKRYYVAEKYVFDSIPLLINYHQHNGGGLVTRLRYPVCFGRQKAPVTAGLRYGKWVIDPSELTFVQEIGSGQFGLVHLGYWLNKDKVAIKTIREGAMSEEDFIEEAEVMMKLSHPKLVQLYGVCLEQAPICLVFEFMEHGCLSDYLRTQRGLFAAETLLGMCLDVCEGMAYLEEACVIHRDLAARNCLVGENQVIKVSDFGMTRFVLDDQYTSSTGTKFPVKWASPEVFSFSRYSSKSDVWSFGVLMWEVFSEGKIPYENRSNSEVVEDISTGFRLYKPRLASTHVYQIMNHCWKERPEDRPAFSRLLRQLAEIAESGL
What remaining binding at 1 µM was measured for each of the following?
One number for each entry, in %.

Batch lookup, remaining binding at 1 µM per entry.
1. COC(=O)c1cnc(S(C)(=O)=O)nc1N1CCCC(n2nc(-c3ccc(Oc4ccccc4)cc3)c3c(N)ncnc32)C1 (centres unmarked) [Compound 8b]
2. CCOC(=O)c1cnc(S(C)(=O)=O)nc1N1CCC[C@@H](n2nc(-c3ccc(Oc4ccccc4)cc3)c3c(N)ncnc32)C1 [Compound 8c]
3. C=CC(=O)N1CCC[C@@H](n2nc(-c3ccc(Oc4ccccc4)cc3)c3c(N)ncnc32)C1 [Compound 1g, Ibrutinib, reference compound]
4. CNC(=O)c1cnc(S(C)(=O)=O)nc1N1CCCC(n2nc(-c3ccc(Oc4ccccc4)cc3)c3c(N)ncnc32)C1 (centres unmarked) [Compound 8d]
5. Cc1cnc(S(C)(=O)=O)nc1N1CCCC(n2nc(-c3ccc(Oc4ccccc4)cc3)c3c(N)ncnc32)C1 (centres unmarked) [Compound 8a]

Response line:
71
88
15
81
84

* * *

biological target: EPHA8 (Homo sapiens, UniProt P29322); construct: purchased Eurofins DiscoverX KINOMEscan (scanTK); experiment: KINOMEscan ScanTK; assay type: binding; conditions: @1000nM, read-out: %Control
Sequence (P29322 28-1005): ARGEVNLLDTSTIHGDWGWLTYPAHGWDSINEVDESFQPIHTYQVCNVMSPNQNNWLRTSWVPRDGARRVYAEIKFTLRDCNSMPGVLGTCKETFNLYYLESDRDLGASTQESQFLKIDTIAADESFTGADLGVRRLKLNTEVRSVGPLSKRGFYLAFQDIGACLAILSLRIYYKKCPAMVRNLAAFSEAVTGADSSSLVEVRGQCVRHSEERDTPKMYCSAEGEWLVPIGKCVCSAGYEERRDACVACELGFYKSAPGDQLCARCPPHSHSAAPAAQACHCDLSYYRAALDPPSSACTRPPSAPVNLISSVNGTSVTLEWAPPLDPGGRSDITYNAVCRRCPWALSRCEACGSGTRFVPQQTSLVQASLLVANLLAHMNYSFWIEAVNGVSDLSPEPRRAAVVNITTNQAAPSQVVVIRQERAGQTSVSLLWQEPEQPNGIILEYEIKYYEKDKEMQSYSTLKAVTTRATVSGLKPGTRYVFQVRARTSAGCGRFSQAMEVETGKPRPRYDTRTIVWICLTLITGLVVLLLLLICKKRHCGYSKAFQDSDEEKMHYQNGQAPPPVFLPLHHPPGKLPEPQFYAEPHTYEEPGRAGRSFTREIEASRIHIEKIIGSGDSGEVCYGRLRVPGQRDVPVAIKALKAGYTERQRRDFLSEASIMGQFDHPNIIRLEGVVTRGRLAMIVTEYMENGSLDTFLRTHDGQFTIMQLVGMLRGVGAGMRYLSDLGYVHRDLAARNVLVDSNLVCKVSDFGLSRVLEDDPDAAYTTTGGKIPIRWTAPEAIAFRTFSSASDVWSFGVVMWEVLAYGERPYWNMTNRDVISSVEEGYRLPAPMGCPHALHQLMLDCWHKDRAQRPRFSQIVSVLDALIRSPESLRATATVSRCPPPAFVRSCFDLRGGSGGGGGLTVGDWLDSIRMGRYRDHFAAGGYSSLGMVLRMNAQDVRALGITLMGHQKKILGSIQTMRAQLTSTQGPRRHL
Label TRUE when remaining binding at 1 µM is strictly below 80%; otherwise label FALSE.

> print(dat)
                                   compound  label.class
1  CNC(=O)c1cnc(S(C)(=O)=O)nc1N1CCCC(n2nc(-c3ccc(Oc4ccccc4)cc3)c3c(N)ncnc32)C1 (centres unmarked) [Compound 8d]        FALSE
2  C=CC(=O)N1CCC[C@@H](n2nc(-c3ccc(Oc4ccccc4)cc3)c3c(N)ncnc32)C1 [Compound 1g, Ibrutinib, reference compound]         TRUE
3  CCOC(=O)c1cnc(S(C)(=O)=O)nc1N1CCC[C@@H](n2nc(-c3ccc(Oc4ccccc4)cc3)c3c(N)ncnc32)C1 [Compound 8c]        FALSE

Now consider a different compound.
Prompt line: Consider the compound COC(=O)c1cnc(S(C)(=O)=O)nc1N1CCCC(n2nc(-c3ccc(Oc4ccccc4)cc3)c3c(N)ncnc32)C1 (centres unmarked) [Compound 8b] . Is its remaining binding at 1 µM strictly less than 80%?
Response line: TRUE

* * *

What difference in %Control versus compound Ib at 1 µM was measured for each of the following?
target: FES (Homo sapiens, UniProt P07332); construct: purchased Eurofins DiscoverX KINOMEscan (scanTK); experiment: KINOMEscan ScanTK; type: binding; conditions: @1000nM
Sequence (P07332 whole entry): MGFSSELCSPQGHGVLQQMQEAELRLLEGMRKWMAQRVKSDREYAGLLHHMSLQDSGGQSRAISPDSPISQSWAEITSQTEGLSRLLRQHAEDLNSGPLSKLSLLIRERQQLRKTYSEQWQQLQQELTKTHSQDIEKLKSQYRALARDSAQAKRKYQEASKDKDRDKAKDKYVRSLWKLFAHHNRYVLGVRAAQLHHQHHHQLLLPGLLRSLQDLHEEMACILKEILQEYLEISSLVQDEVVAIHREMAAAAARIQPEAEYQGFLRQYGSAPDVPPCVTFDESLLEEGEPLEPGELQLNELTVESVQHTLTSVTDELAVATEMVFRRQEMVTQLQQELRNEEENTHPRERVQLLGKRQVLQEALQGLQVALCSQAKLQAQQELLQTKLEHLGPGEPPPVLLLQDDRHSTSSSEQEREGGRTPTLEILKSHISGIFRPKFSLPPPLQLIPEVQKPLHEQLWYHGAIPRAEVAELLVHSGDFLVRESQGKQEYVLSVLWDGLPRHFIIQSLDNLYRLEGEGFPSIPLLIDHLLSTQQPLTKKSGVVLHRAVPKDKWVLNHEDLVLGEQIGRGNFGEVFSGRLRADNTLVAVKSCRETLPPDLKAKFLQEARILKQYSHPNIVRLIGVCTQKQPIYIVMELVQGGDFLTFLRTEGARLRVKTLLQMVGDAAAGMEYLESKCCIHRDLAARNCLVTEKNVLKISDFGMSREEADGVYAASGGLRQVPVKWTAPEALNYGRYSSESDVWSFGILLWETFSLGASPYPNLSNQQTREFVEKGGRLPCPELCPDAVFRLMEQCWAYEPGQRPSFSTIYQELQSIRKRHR
Give bare numbers, in %.

Check out these entries, answers already filled in.
> print(dat)
                                   molecule  result.number
1  Cc1cnc(S(C)(=O)=O)nc1N1CCCC(n2nc(-c3ccc(Oc4ccccc4)cc3)c3c(N)ncnc32)C1 (stereo not shown)              0
2  CCOC(=O)c1cnc(S(C)(=O)=O)nc1N1CCC[C@@H](n2nc(-c3ccc(Oc4ccccc4)cc3)c3c(N)ncnc32)C1             -4
3  COC(=O)c1cnc(S(C)(=O)=O)nc1N1CCCC(n2nc(-c3ccc(Oc4ccccc4)cc3)c3c(N)ncnc32)C1 (stereo not shown)              0

Now let's try a different one.
Prompt line: difference in %Control versus compound Ib at 1 µM for CNC(=O)c1cnc(S(C)(=O)=O)nc1N1CCCC(n2nc(-c3ccc(Oc4ccccc4)cc3)c3c(N)ncnc32)C1 (stereo not shown) ?
Response line: 0

* * *

What remaining binding at 1 µM was measured for each of the following?
target: ABL1(Y253F)-phosphorylated (Homo sapiens, UniProt P00519, Y253F); construct: purchased Eurofins DiscoverX KINOMEscan (scanTK); experiment: KINOMEscan ScanTK; format: binding; settings: read-out: %Control @1000nM
Answers are plain numbers, in %.

Check out these entries, answers already filled in.
> print(dat)
                                   compound  result.number
1  Cc1cnc(S(C)(=O)=O)nc1N1CCCC(n2nc(-c3ccc(Oc4ccccc4)cc3)c3c(N)ncnc32)C1 (centres unmarked)             83
2  CNC(=O)c1cnc(S(C)(=O)=O)nc1N1CCCC(n2nc(-c3ccc(Oc4ccccc4)cc3)c3c(N)ncnc32)C1 (centres unmarked)             80
3  C=CC(=O)N1CCC[C@@H](n2nc(-c3ccc(Oc4ccccc4)cc3)c3c(N)ncnc32)C1 [Compound 1g, Ibrutinib, reference compound]             77
4  COC(=O)c1cnc(S(C)(=O)=O)nc1N1CCCC(n2nc(-c3ccc(Oc4ccccc4)cc3)c3c(N)ncnc32)C1 (centres unmarked)             78

Prompt line: remaining binding at 1 µM for "CCOC(=O)c1cnc(S(C)(=O)=O)nc1N1CCC[C@@H](n2nc(-c3ccc(Oc4ccccc4)cc3)c3c(N)ncnc32)C1" ?
Response line: 81

* * *

target: FGFR1 (Homo sapiens, UniProt P11362); construct: purchased Eurofins DiscoverX KINOMEscan (scanTK); assay: KINOMEscan ScanTK; type: binding; conditions: @1000nM, read-out: %Control
What remaining binding at 1 µM was measured for each of the following?
One number for each entry, in %.

Check out these entries, answers already filled in.
> print(dat)
                                   compound                    readout  result.number
1  CNC(=O)c1cnc(S(C)(=O)=O)nc1N1CCCC(n2nc(-c3ccc(Oc4ccccc4)cc3)c3c(N)ncnc32)C1 (centres unmarked)  remaining binding at 1 µM             78
2  Cc1cnc(S(C)(=O)=O)nc1N1CCCC(n2nc(-c3ccc(Oc4ccccc4)cc3)c3c(N)ncnc32)C1 (centres unmarked)  remaining binding at 1 µM             77
3  CCOC(=O)c1cnc(S(C)(=O)=O)nc1N1CCC[C@@H](n2nc(-c3ccc(Oc4ccccc4)cc3)c3c(N)ncnc32)C1  remaining binding at 1 µM             86
4  COC(=O)c1cnc(S(C)(=O)=O)nc1N1CCCC(n2nc(-c3ccc(Oc4ccccc4)cc3)c3c(N)ncnc32)C1 (centres unmarked)  remaining binding at 1 µM             49

Prompt line: remaining binding at 1 µM for C=CC(=O)N1CCC[C@@H](n2nc(-c3ccc(Oc4ccccc4)cc3)c3c(N)ncnc32)C1 [Compound 1g, Ibrutinib, reference compound] ?
Response line: 33
